Taken from patent US20130204033A1.

test system: DMS53; assay: 3H thymidine proliferation assay, DMS53; type: cell-based, human; details: Homo sapiens, DMS-53, read-out: EC50, DMS53, 3H thymidine method, 72 h incubation
Reported pEC50 by item:
Schema: pEC50 number; meaning minus log10 of the concentration expressed in molar units.

Short answer on DMS53 for CC[C@H](C)[C@H](NC(=O)[C@H]1CCCCN1C)C(=O)N(COC(=O)CC(C)C)[C@H](C[C@@H](OC(C)=O)c1nc(C(=O)N[C@@H](Cc2ccc(N)cc2)CC(C)C(=O)O)cs1)C(C)C (some centres unmarked) [Compound 54] , pEC50: 8.70

Continuing:
Short answer on DMS53 for CC[C@H](C)[C@H](NC(=O)[C@H]1CCCCN1C)C(=O)N(C)[C@H](C[C@@H](OC)c1nc(C(=O)N[C@H](CCC(=O)OC)Cc2ccccc2)cs1)C(C)C [Compound 26] , pEC50: 7.00

Short answer on DMS53 for CC[C@H](C)[C@H](NC(=O)[C@H]1CCCCN1C)C(=O)N(C)[C@H](C[C@@H](OC)c1nc(C(=O)N[C@H](CC(=O)OC)Cc2ccccc2)cs1)C(C)C [Compound 25] , pEC50: 6.29

Short answer on DMS53 for CC[C@H](C)[C@H](NC(=O)[C@H]1CCCCN1C)C(=O)N(C)[C@H](C[C@@H](OC)c1nc(C(=O)NC(Cc2ccccc2)C[C@H](C)C(=O)O)cs1)C(C)C (some centres unmarked) [Compound 15] , pEC50: 7.43
